The reported numbers originate from ChEMBL document CHEMBL3882724.

Target: Steroid 17-alpha-hydroxylase/17,20 lyase (Homo sapiens)
Sequence (P05093 whole entry): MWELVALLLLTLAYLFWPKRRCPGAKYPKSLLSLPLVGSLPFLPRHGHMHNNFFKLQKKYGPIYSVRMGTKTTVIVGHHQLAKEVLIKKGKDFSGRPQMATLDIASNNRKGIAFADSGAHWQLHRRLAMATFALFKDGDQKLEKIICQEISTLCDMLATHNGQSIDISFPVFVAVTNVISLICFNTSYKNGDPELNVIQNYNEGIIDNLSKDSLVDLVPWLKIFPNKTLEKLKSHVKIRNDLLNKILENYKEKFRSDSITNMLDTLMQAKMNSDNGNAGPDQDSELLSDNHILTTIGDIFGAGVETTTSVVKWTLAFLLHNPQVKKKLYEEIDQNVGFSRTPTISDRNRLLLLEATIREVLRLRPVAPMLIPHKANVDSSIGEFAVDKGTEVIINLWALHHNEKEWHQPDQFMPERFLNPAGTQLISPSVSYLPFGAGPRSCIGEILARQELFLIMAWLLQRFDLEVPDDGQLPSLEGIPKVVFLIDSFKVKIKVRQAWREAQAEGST
Assay: Inhibition of human C17,20-lyase in human testis microsomes at 10 nM using 17alpha-hydroxypregnenolone/[21-3H]-17alpha-hydroxypregnenolone as substrate after 30 mins by scintillation counting method relative to control
Settings: 0.5 h
property: inhibition at 0.01 µM

| compound | value_reported |
| --- | --- |
| CCOc1cncc(C2=CC[C@H]3[C@@H]4CC[C@H]5COC(=O)CC[C@]5(C)[C@H]4CC[C@]23C)c1 | 3 to 38% |
| C[C@]12CC[C@H]3[C@@H](CCN4C(=O)C=CCC[C@]34C)[C@@H]1CC=C2c1cccnc1 | ≥ 38% |
| C[C@]12CCC(=O)OC[C@@H]1CC[C@@H]1[C@@H]2CC[C@]2(C)C(c3cccnc3)=CC[C@@H]12 | ≥ 38% |

I have 3 molecules here; please give me inhibition at 0.01 µM for each one.
1. COc1cncc(C2=CC[C@H]3[C@@H]4CC[C@H]5COC(=O)CC[C@]5(C)[C@H]4CC[C@]23C)c1
2. C[C@]12CCOC(=O)C[C@@H]1CC[C@@H]1[C@@H]2CC[C@]2(C)C(c3cccnc3)=CC[C@@H]12
3. C[C@]12CC[C@H]3[C@@H](CCN4C(=O)CC=CC[C@]34C)[C@@H]1CC=C2c1cccnc1

// result
≥ 38%
≥ 38%
≥ 38%
